Recorded values, source ChEMBL document CHEMBL1201862.

# measured-on: Sentrin-specific protease 7 (Homo sapiens, UniProt Q9BQF6)
# Sequence (Q9BQF6 whole entry): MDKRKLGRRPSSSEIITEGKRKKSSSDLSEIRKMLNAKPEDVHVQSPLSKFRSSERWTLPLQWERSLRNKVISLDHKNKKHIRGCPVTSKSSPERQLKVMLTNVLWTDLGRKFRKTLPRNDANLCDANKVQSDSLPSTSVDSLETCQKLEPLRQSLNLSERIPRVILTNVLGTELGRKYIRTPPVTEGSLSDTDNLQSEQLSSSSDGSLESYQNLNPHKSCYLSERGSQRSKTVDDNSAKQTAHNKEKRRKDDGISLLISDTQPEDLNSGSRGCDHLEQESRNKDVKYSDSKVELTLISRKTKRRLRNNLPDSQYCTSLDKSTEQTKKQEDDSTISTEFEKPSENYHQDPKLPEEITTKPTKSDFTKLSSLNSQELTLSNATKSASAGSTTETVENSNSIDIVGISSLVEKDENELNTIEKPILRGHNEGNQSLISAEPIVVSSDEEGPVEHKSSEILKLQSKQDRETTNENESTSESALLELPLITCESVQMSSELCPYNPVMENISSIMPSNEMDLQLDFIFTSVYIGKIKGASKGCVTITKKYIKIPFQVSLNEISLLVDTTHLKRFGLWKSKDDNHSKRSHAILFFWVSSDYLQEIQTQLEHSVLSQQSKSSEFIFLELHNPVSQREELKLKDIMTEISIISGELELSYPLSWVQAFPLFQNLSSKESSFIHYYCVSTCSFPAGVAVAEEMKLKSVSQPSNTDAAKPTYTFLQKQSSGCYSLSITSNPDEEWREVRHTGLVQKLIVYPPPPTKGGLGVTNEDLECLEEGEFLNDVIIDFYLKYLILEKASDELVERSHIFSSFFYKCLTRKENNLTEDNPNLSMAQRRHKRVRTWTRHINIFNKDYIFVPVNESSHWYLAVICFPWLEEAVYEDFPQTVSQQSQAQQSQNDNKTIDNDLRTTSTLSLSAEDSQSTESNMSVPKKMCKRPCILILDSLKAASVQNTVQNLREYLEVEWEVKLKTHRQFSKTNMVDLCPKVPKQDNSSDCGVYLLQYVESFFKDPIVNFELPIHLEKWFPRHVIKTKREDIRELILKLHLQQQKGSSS
# Format: functional
Calls of active or inactive are those of the source.
Measured IC50, listed per entry.

Recorded results for 3 compounds are shown here.
>  <structure-smiles-string>
C(=N\Nc1nc(-c2ccccc2)cs1)/c1cccs1

>  <IC50>
4.19 µM (active)

$$$$
>  <structure-smiles-string>
CCCSC(=N)N/N=C/c1cc(C)ccc1O

>  <IC50>
11.4 µM (active)

$$$$
>  <structure-smiles-string>
O=C(Nc1ccc(Br)cc1)c1ccc2c(c1)OCO2

>  <IC50>
3.75 µM (active)

$$$$

[in] What measured IC50 goes with COC(=O)c1sc(-c2ccc(Cl)cc2)cc1N ?
[out] 2.96 µM (active)

====

Measured EC50, listed per entry.
# measured-on: Heat shock factor protein 1 (Mus musculus, UniProt P38532)
# Sequence (P38532 whole entry): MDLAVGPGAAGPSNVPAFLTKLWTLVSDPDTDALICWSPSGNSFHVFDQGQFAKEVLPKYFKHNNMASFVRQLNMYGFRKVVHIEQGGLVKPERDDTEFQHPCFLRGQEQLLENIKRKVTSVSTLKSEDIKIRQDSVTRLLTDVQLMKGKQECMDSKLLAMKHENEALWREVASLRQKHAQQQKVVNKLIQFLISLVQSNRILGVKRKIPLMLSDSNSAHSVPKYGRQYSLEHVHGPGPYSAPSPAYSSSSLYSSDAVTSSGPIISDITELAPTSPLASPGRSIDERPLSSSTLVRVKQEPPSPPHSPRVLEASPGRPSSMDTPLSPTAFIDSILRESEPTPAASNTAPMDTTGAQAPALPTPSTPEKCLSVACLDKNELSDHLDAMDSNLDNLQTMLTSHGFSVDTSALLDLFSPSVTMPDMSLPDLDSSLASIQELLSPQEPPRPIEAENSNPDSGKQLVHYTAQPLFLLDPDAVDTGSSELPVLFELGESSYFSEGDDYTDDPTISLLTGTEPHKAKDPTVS
# method-notes: inhibition of MG132-induced HSE-luciferase signal, confirmation, cell-based, NIH3T3, luminescence, dose retest (AID 2382);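 also: NIH3T3 fibroblasts with HSF1-driven luciferase reporter stressed by proteasome inhibitor MG132; luminescence from HSF1-driven luciferase expression after 8 hours of MG132 stress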
# Type: functional
Active and inactive are the calls of the source.

Recorded results for 10 compounds are shown here.
>  <compound>
CCOC(=O)C1(CCOc2ccccc2)CCN(Cc2cccc(-n3cccn3)c2)CC1

>  <EC50>
> 195 µM (not active)

$$$$
>  <compound>
COc1ccc(CNC(=O)C2CCN(S(=O)(=O)c3ccc4c(c3)C(C)(C)C(=O)N4C)CC2)cc1

>  <EC50>
55.2 µM (active)

$$$$
>  <compound>
O=C(c1ccc(O)cc1)c1ccc(C(=O)O)c(C(=O)O)c1

>  <EC50>
> 195 µM (not active)

$$$$
>  <compound>
CCOc1ccc(CNS(=O)(=O)c2c(C)nc3scc(C)n3c2=O)cc1OC

>  <EC50>
> 195 µM (not active)

$$$$
>  <compound>
COc1cc(C2NC(=O)NC(C)=C2C(=O)OCC2CCCO2)ccc1O (stereo unspecified)

>  <EC50>
> 195 µM (not active)

$$$$
>  <compound>
CCC(=O)CCC(=O)c1ccc2ccccc2c1

>  <EC50>
> 195 µM (not active)

$$$$
>  <compound>
COc1ccc(C=O)cc1CN1CCCN(Cc2ccc(Cl)cc2)S1(=O)=O

>  <EC50>
> 195 µM (not active)

$$$$
>  <compound>
COc1ccccc1C(=O)NC(=S)N1CCCc2ccccc21

>  <EC50>
16.2 µM (active)

$$$$
>  <compound>
O=C(Nc1ccccc1-c1nc2ccccc2s1)c1cccnc1

>  <EC50>
> 195 µM (not active)

$$$$
>  <compound>
O=C(C1CCCN(S(=O)(=O)c2ccc(Cl)cc2)C1)N(Cc1cccs1)C1CC1 (stereo unspecified)

>  <EC50>
> 195 µM (not active)

$$$$

[in] Checklist item: EC50 tested on Heat shock factor protein 1 (Mus musculus, UniProt P38532), entry CC(C)(C)c1ccc(-c2nnc3sc(-c4ccccn4)nn23)cc1 , value?
[out] 0.871 µM (active)

====

Each entry below carries its measured AC50, system: Cytochrome P450 2C9 (Homo sapiens, UniProt P11712).
Sequence (P11712 whole entry): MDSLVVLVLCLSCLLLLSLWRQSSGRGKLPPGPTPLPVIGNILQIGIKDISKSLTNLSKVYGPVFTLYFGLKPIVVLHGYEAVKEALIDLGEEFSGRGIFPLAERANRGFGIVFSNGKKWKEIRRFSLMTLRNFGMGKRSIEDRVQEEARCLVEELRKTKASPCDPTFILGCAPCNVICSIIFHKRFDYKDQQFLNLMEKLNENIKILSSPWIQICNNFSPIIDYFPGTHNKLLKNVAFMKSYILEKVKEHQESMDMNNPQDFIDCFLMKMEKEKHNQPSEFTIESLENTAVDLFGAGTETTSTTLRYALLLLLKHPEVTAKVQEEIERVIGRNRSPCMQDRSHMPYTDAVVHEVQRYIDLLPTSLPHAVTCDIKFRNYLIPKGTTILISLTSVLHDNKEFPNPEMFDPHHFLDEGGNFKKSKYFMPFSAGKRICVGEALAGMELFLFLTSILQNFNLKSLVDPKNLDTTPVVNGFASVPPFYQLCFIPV

Recorded results for 5 compounds are shown here.
>  <compound>
CCN1C[C@]2(COC(=O)c3ccccc3N3C(=O)C[C@H](C)C3=O)CC[C@H](OC)[C@]34[C@@H]5C[C@@H]6[C@H](OC)[C@H]5[C@](O)(C[C@@H]6OC)C(O)([C@@H]13)[C@@H](OC)[C@@H]24

>  <measured-on>
Cytochrome P450 2C9 (Homo sapiens, UniProt P11712)

>  <AC50>
inconclusive

$$$$
>  <compound>
CCCCN1CCC(COC(=O)c2cc(Cl)c(N)c3c2OCCO3)CC1

>  <measured-on>
Cytochrome P450 2C9 (Homo sapiens, UniProt P11712)

>  <AC50>
inconclusive

$$$$
>  <compound>
Cc1ccc(S(=O)(=O)N2CCN(C(=O)C3COc4ccccc4O3)CC2)cc1C (configuration not stated)

>  <measured-on>
Cytochrome P450 2C9 (Homo sapiens, UniProt P11712)

>  <AC50>
inconclusive

$$$$
>  <compound>
CCCCC(=O)NC(=S)Nc1cccc(NC(=O)CC)c1

>  <measured-on>
Cytochrome P450 2C9 (Homo sapiens, UniProt P11712)

>  <AC50>
inconclusive

$$$$
>  <compound>
COc1ccccc1C(=O)NC(=S)N1CCCc2ccccc21

>  <measured-on>
Cytochrome P450 2C9 (Homo sapiens, UniProt P11712)

>  <AC50>
inconclusive

$$$$

Read the next record carefully.
[in] What measured AC50 goes with Cn1cnc(CCN)c1 ?
[out] inconclusive

====

# measured-on: Corticotropin-releasing factor receptor 2/Corticotropin-releasing factor-binding protein (Homo sapiens, UniProt P24387+Q13324)
# Sequence (Q13324 whole entry): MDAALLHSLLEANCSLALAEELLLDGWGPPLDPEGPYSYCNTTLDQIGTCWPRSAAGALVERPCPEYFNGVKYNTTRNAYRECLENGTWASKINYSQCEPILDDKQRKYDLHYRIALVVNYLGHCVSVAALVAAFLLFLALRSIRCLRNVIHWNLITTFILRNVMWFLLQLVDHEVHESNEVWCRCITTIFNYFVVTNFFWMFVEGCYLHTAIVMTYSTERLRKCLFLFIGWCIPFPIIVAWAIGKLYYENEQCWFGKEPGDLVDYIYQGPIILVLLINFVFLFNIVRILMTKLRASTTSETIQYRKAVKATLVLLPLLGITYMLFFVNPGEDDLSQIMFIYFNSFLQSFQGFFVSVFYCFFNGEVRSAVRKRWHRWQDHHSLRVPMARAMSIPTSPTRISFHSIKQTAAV
# Sequence (P24387 whole entry): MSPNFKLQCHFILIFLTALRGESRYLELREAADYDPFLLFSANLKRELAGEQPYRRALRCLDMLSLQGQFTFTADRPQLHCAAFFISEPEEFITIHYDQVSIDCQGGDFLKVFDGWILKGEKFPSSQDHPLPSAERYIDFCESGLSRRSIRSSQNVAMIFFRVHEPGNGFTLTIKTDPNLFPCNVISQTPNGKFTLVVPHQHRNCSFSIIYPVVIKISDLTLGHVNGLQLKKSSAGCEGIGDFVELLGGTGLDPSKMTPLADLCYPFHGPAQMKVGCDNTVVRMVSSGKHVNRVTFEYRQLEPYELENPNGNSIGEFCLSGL
# method-notes: Dose Response confirmation of uHTS hits for small molecule antagonists of the CRF-binding protein and CRF-R2 receptor complex.
# Assay type: functional
# assay-setup: read-out: IC50_Mean
Calls of active or inactive are those of the source.
Can you answer with just one of these options? active, inactive

Some entries whose results are on file:
>  <compound>
C=CCN1C(=O)NC(=O)/C(=C(/CC)NCc2ccc3c(c2)OCO3)C1=O

>  <label-class>
inactive

$$$$
>  <compound>
C=CCCC(=O)N1CCC(n2nccc2NC(=O)c2ccc(OC)cc2)CC1

>  <label-class>
inactive

$$$$
>  <compound>
COc1cc(OC)cc(C(=O)NC2CC3CCC(C2)N3Cc2ccco2)c1 (stereo not given)

>  <label-class>
inactive

$$$$
>  <compound>
Cc1ccc(NC(=O)c2ccccc2NS(=O)(=O)c2ccc(F)cc2)cc1S(=O)(=O)N1CCCCC1

>  <label-class>
active

$$$$

Next item in the queue.
[in] Which result was noted for this compound in the test: c1ccc(-c2cc3nccc(-c4ccccn4)n3n2)cc1
[out] inactive

====

# measured-on: Prothrombin (Bos taurus)
# method-notes: thrombin inhibition, dose response, biochemical, fluorescence polarization, uHTS hits (AID 602369)
# Type: functional
The source made the active and inactive calls.
Can you answer with just one of these options? active, inactive

[in] Which result was noted for this compound in the test: O=C(NN=Cc1ccc(N(CCCl)CCCl)cc1)C(=O)c1c[nH]c2ccccc12
[out] active

====

# measured-on: Carboxy-terminal domain RNA polymerase II polypeptide A small phosphatase 1 (Homo sapiens, UniProt Q9GZU7)
# Sequence (Q9GZU7 whole entry): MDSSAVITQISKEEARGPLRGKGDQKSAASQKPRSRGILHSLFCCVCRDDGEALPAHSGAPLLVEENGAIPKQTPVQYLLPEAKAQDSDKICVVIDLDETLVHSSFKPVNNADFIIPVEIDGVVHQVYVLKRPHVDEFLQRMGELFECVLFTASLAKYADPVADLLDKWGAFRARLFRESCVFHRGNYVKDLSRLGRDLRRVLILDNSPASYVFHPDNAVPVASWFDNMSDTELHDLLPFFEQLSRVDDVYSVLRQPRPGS
# method-notes: inhibitors of CTDSP1, concentration-response testing, biochemical assay, absorbance-based, actives from ultra-high-throughput screening (AID 540297)
# Format: functional
The source made the active and inactive calls.
measured-attribute: IC50

[in] What measured IC50 goes with Cc1ccc(S(=O)(=O)Nc2csc(C)c2C(=O)O)cc1 ?
[out] 3.94 µM (active)

[in] What measured IC50 goes with Cc1ccc(NC(=O)c2cc(-c3ccc(C)c(C)c3O)n[nH]2)cc1C ?
[out] 8.08 µM (active)

====

# measured-on: Cytochrome P450 3A4 (Homo sapiens)
# Sequence (P08684 whole entry): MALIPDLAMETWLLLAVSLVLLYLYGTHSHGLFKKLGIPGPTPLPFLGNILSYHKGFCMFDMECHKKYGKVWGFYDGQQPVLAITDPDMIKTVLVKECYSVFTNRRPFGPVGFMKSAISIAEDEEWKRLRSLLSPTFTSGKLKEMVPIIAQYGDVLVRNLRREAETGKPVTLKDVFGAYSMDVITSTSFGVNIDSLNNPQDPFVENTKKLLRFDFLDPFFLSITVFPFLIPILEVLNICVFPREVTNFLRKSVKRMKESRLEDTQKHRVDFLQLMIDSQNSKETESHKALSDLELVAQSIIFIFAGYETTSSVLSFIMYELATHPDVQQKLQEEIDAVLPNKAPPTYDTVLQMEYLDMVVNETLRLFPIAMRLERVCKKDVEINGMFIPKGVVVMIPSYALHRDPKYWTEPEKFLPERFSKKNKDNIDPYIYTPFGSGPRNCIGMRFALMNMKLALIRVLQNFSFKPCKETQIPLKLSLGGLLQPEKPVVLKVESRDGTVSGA
# assay-setup: Potency
Measured AC50, listed per entry.

>  <molecule>
FC(F)(F)c1ccc(C2[C@H]3CN(Cc4ccc(-c5ccccc5)cc4)[C@H](c4ccccc4)C34CC2(c2cccnc2)C4)cc1 (some centres undefined)

>  <assay-result>
15.8 µM (inconclusive)

$$$$

[in] What measured AC50 goes with COC(=O)c1cccc(C23CC4(C2)[C@H](CN(CC2CCCCC2)[C@@H]4c2ccccc2)C3c2ccc(C(F)(F)F)cc2)c1 (some centres undefined) ?
[out] 15.8 µM (inconclusive)

[in] What measured AC50 goes with COC(=O)c1c(C)cc(OC)cc1O ?
[out] 39.8 µM (inconclusive)

[in] What measured AC50 goes with CCOC(=O)[C@]1(C(NC(=O)OC)c2ccccc2)CCCC1=O (some centres undefined) ?
[out] 2.51 µM (inconclusive)

====

# method-notes: cytotoxicity toward DRD oncogenic fibroblasts, dose response, cell-based, non-viral oncogenic, luminescence (AID 1934)
# Format: functional
# assay-setup: Homo sapiens
measured-attribute: EC50

[in] What measured EC50 goes with CCc1nc(C)cn1S(=O)(=O)c1cc([N+](=O)[O-])ccc1Cl ?
[out] 7.62 µM (inconclusive)

====

# method-notes: inhibitors of intracellular T. cruzi replication, confirmation, NIH3T3 host cells, beta-gal luminescence (AID 2044);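 also: intracellular parasites grown in NIH/3T3 mouse fibroblasts as host cells; luminescent beta-galactosidase reporter signal from transgenic T. cruzi replicating inside host cells; inhibitors lower the luminescence signal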
# Type: functional, cell-based
The source made the active and inactive calls.
Measured EC50, listed per entry.

Recorded results for 4 compounds are shown here.
>  <structure-smiles-string>
COc1ccc(/C=C2\SC(=S)N(CCC(=O)N(CCO)Cc3ccccc3)C2=O)cc1OC

>  <assay-result>
3320 nM (active)

$$$$
>  <structure-smiles-string>
O=C(N/N=C/c1cc(Br)ccc1O)C(=O)Nc1ccccc1OC(F)(F)C(F)F

>  <assay-result>
572 nM (active)

$$$$
>  <structure-smiles-string>
Cc1cc(SCC(=O)N/N=C/c2ccc(O)cc2O)c(C)cc1Br

>  <assay-result>
687 nM (active)

$$$$
>  <structure-smiles-string>
Cc1ccc2oc(Nc3nc(O)cc(-c4ccccc4)n3)nc2c1

>  <assay-result>
1620 nM (active)

$$$$

[in] What measured EC50 goes with COc1cc(CCN2C(=O)c3cccc4cccc(c34)C2=O)c(S(=O)(=O)N2CCCCCC2)cc1OC ?
[out] 1900 nM (active)
